Test system: NCI/ADR-RES ovarian
assay explanation: NCI-60 one-dose screen, 48 h (100 = growth as untreated, 0 = no growth, -100 = all killed)
condition description: 10 µM
Compounds without any hit were thinned out: in the full panel of roughly 83,000, 20% have a hit.
Classify by measured growth: YES if it is equal to or exceeds 80%, NO if it is smaller.

Below are worked cases with known answers.
In: Dear colleague, could you confirm whether CC(C)C1(NC(=O)C2CC3c4cccc5[nH]cc(c45)CC3N(C)C2)OC2(O)C3CCCN3C(=O)C(Cc3ccccc3)N2C1=O (stereo unspecified) has growth at or above 80%?
Out: YES

In: Say whether CC12OOC(c3ccccc31)c1c2ccc2ccccc12 (stereo unspecified) shows growth of 80% or more.
Out: NO

In: Entry `Cc1cc(C)c(C[N+](C)(C)C)c(C)c1C` : is its growth no less than 80%?
Out: NO

In: Decide: is the reported value of growth for `Oc1c(Cl)cc(Cl)c2ccccc12.[Cu+2]` equal to or greater than 80%?
Out: YES

In: Can `C=C1C(=O)O[C@@H]2C[C@@H](C)[C@@H]3C=CC(=O)[C@@]3(C)[C@@H](O)[C@H]12` be said to have growth at or above 80%?
Out: NO

New cases:
In: Reported growth reaches at least 80% for `Cc1cc(C(C)(C)c2ccc(O)c(C)c2)ccc1O` ?
Out: YES

In: Is it the case that `C[C@]12CC[C@H]3[C@@H](CCC4=CC(=O)CC[C@@H]43)[C@@H]1CC[C@@H]2OC(=O)N(CCCl)N=O` has growth reaching or exceeding 80%?
Out: NO

In: Could you please find out whether `O=C(CCl)Nc1ccc(Cl)cc1` has growth that meets 80% or exceeds it?
Out: NO

In: Determine whether measured growth meets or exceeds 80% for COc1ccccc1[As]=[As]c1ccccc1OC (stereo unspecified)
Out: NO

In: # check: growth of `O=C1CCC(=O)N1SC(Cl)(Cl)Cl` is greater than or equal to 80%
Out: YES
